Target: human GLP-1 receptor (human, UniProt P43220 24-463)
Assay: cell-based or functional assay
Starred links: 1 amine or outer side, 2 acyl side, 3 side chain; linkers in the order of their positions; H or OH if unused. Non-standard residues stand in square brackets, D forms with d. Groups on a side chain read outwards from the residue. *: point of attachment. C20 diacid = O=C(O)CCCCCCCCCCCCCCCCCCC(=O)*; C18 diacid = O=C(O)CCCCCCCCCCCCCCCCC(=O)*; C16 diacid = O=C(O)CCCCCCCCCCCCCCC(=O)*; γGlu = O=C(O)[C@H](CCC(=O)[*:2])N[*:1]; εLys = N[C@@H](CCCCN[*:1])C(=O)[*:2]; Trx = NC[C@H]1CC[C@H](C(=O)O)CC1; AEEA = NCCOCCOCC(=O)O; Aib = CC(C)(N)C(=O)O
# strict inequality: Human GLP-1R potency [EC50 (pM)] < 6 pM yields class 1, everything else yields class 0

Sample answers from the record:
Compound 0581 (peptide) peptide: H[Aib]EGTFTSDVSSYLEEQAARK([AEEA-AEEA-γGlu-C20 diacid])FIEWLVRGASELSTAALGRLSAELHELATLPRTETGSGSP-NH2	class 0
Compound 0411 (peptide) peptide: H[Aib]EGTFTSDVSSYLEEK([AEEA-AEEA-γGlu-C16 diacid])AAREFIAWLVRGRGGGGGEASELSTAALGRLSAELHELATLPRTETGK([AEEA-AEEA-γGlu-C16 diacid])GSP-NH2	class 1
Compound 0092 (peptide) peptide: H[Aib]EGTFTSDVSSYLEGQAAK([AEEA-AEEA-γGlu-C18 diacid])EFIAWLVRGRGGGGGGGGGGGGGEASELSTAALGRLSAELHELATLPRTETGSGSP-NH2	class 0

Next, consider the following binder.
Strictly below 6 pM in Human GLP-1R potency [EC50 (pM)]? Compound 0437 (peptide) peptide: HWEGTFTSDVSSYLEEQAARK([εLys-AEEA-AEEA-γGlu-Trx-C20 diacid])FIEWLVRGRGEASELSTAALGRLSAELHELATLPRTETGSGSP-NH2
class 0

Just for reference, patent US20260132182A1 is where these values come from.
